Species on record: Mus musculus
assay.method.text: Antinociceptive response was determined in mice using tail flick method
Format: functional
property: AD50 (µg/kg)
Numbers only, in µg/kg.

Check out these entries, answers already filled in.
compound: Fc1ccc(-c2cc(C3CC4CCC3N4)cnc2F)cc1 (stereo not drawn)
AD50, µg/kg: 0.5
//
compound: Fc1ncc(C2CC3CCC2N3)cc1-c1ccccc1 (stereo in doubt; (-)-5a)
AD50, µg/kg: 80
//
compound: O=[N+]([O-])c1cccc(-c2cc(C3CC4CCC3N4)cnc2F)c1 (stereo not drawn)
AD50, µg/kg: 0.5
//
compound: COc1cccc(-c2cc(C3CC4CCC3N4)cnc2F)c1 (stereo not drawn)
AD50, µg/kg: 8
//
compound: Fc1ncc(C2CC3CCC2N3)cc1-c1cccc(Cl)c1 (stereo not drawn)
AD50, µg/kg: 10
//
compound: Fc1ncc(C2CC3CCC2N3)cc1-c1ccccc1 (racemic)
AD50, µg/kg: 500

Provide the reported AD50 of each entry below, same order.
1. Fc1ncc(C2CC3CCC2N3)cc1-c1ccccc1 (single isomer, unassigned; (+))
2. Nc1cccc(-c2cc(C3CC4CCC3N4)cnc2F)c1 (stereo not drawn)
3. Nc1ccc(-c2cc(C3CC4CCC3N4)cnc2F)cc1 (stereo not drawn)
4. Fc1cccc(-c2cc(C3CC4CCC3N4)cnc2F)c1 (stereo not drawn)
5. O=[N+]([O-])c1ccc(-c2cc(C3CC4CCC3N4)cnc2F)cc1 (stereo not drawn)
6. COc1ccc(-c2cc(C3CC4CCC3N4)cnc2F)cc1 (stereo not drawn)

[1000, 9, 5, 5, 3, 50]

Query Fc1ncc(C2CC3CCC2N3)cc1-c1ccc(Cl)cc1 (stereo not drawn) yields AD50 of 0.3

---

target.or.test.system: Neuronal acetylcholine receptor; alpha4/beta2 (Rattus norvegicus, UniProt P09483+P12390)
Sequence (P09483 whole entry): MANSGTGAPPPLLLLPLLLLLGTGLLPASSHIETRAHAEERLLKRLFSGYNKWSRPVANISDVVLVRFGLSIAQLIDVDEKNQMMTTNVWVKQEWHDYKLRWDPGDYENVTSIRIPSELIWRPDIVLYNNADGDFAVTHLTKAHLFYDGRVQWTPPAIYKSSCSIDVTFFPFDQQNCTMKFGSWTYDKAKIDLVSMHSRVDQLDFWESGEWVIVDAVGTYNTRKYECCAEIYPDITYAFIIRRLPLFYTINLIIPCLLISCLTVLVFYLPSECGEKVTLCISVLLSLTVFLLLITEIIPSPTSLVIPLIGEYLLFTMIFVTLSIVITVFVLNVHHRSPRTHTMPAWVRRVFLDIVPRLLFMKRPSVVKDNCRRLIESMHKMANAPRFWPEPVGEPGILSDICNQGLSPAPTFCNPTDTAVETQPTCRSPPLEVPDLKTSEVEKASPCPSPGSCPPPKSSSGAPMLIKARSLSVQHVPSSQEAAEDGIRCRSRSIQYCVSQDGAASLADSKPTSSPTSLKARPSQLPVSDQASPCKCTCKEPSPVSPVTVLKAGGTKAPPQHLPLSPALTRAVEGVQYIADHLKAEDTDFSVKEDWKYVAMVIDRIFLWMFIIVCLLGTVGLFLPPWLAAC
Sequence (P12390 whole entry): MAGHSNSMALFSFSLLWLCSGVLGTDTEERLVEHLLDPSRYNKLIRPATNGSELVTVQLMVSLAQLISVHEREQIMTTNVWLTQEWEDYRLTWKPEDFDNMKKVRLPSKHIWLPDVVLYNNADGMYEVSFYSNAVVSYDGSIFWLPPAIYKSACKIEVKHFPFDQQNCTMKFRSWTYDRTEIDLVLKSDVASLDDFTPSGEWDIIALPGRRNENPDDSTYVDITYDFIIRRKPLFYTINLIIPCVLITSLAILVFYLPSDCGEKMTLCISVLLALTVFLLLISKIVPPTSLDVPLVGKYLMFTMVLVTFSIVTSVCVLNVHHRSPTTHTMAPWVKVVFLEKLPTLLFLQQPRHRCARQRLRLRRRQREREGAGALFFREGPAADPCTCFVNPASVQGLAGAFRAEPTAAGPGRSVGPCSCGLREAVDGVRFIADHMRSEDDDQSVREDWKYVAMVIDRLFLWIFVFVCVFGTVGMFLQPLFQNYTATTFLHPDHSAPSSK
assay.method.text: Inhibition of alpha beta[3H]epibatidine binding to Nicotinic acetylcholine receptor alpha4-beta2 of rat cerebral cortex
pKi: −log10 of the molar value.
Decision: pKi compared against 10; not below it gives satisfied, below it gives not satisfied.

Sample answers from the record:
compound: O=[N+]([O-])c1cccc(-c2cc(C3CC4CCC3N4)cnc2F)c1 (stereo not given)
target.or.test.system: Neuronal acetylcholine receptor; alpha4/beta2 (Rattus norvegicus, UniProt P09483+P12390)
class: satisfied
//
compound: Fc1ncc(C2CC3CCC2N3)cc1-c1ccccc1 (stereo in doubt; (-)-5a)
target.or.test.system: Neuronal acetylcholine receptor; alpha4/beta2 (Rattus norvegicus, UniProt P09483+P12390)
class: not satisfied
//
compound: Fc1ccc(-c2cc(C3CC4CCC3N4)cnc2F)cc1 (stereo not given)
target.or.test.system: Neuronal acetylcholine receptor; alpha4/beta2 (Rattus norvegicus, UniProt P09483+P12390)
class: satisfied
//
compound: Fc1ncc(C2CC3CCC2N3)cc1-c1ccc(Cl)cc1 (stereo not given)
target.or.test.system: Neuronal acetylcholine receptor; alpha4/beta2 (Rattus norvegicus, UniProt P09483+P12390)
class: satisfied

With those in mind, consider the next compound.
Reported pKi at or above 10? Fc1ccc(C2CC3CCC2N3)cn1 (stereo not given) satisfied

---

Tested on: Mus musculus
assay.method.text: Antinociceptive response was determined in mice at a dose of 10 mg/kg using hot plate flick method
Type: functional
I'd appreciate it if you could supply ED50 values for the items below.
Numbers only, in mg/kg.

Completed entries (count: 2):
compound: O=[N+]([O-])c1cccc(-c2cc(C3CC4CCC3N4)cnc2F)c1 (stereo not drawn)
target.or.test.system: Mus musculus
test.value: 20

compound: COc1cccc(-c2cc(C3CC4CCC3N4)cnc2F)c1 (stereo not drawn)
target.or.test.system: Mus musculus
test.value: 8

Switching to the query record.
Quick note, ED50 for Fc1ncc(C2CC3CCC2N3)cc1-c1cccc(Cl)c1 (stereo not drawn) landed at 14

---

Give Ki for every item shown.
target.or.test.system: Neuronal acetylcholine receptor; alpha4/beta2 (Rattus norvegicus, UniProt P09483+P12390)
assay.method.text: Inhibition of alpha beta[3H]epibatidine binding to Nicotinic acetylcholine receptor alpha4-beta2 of rat cerebral cortex
Give bare numbers, in pM.

molecule: COc1ccc(-c2cc(C3CC4CCC3N4)cnc2F)cc1 (stereo not given)
Ki, pM: 60

List reported Ki for each of these molecules:
1. Fc1ncc(C2CC3CCC2N3)cc1-c1cccc(Cl)c1 (stereo not given)
2. Nc1ccc(-c2cc(C3CC4CCC3N4)cnc2F)cc1 (stereo not given)

1: 70; 2: 90

// for each molecule below, give its Ki
1. COc1cccc(-c2cc(C3CC4CCC3N4)cnc2F)c1 (stereo not given)
2. Nc1cccc(-c2cc(C3CC4CCC3N4)cnc2F)c1 (stereo not given)

1: 120; 2: 160
